Entry source: the supplement of paper PMC11061612

Overview of reported Bliss excess across a group of compounds:
Test system: COLO-824 (Breast Carcinoma);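 also: after 72 h of two-drug dosing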
Assay procedure: Bliss excess, mean over the matrix (fraction); higher = more synergy
Lab note: record the figure alone, no unit after it.

Below are worked cases with known answers.
| Compound | Target of assay | Observable | Observed result |
| --- | --- | --- | --- |
| CN(C)CCCOc1ccc(-c2ccc3ncc4c(c3c2)n(C2CCOCC2)c(=O)n4C)cn1 [AZD0156] + C=CCn1c(=O)c2cnc(Nc3ccc(N4CCN(C)CC4)cc3)nc2n1-c1cccc(C(C)(C)O)n1 [AZD1775] (first compound max 1 µM, partner max 1 µM) | COLO-824 (Breast Carcinoma) | Bliss excess | -0.0024 |
| Cc1c2c(nn1C)CSCc1cc(n(C)n1)CSc1cc(c3ccccc3c1)OCCCc1c(C(=O)O)n(C)c3c-2c(Cl)ccc13 [AZD5991] + Cn1cnc2c(F)c(Nc3ccc(Br)cc3Cl)c(C(=O)NOCCO)cc21 [Selumetinib] (first compound max 1 µM, 7x7, partner max 3 µM) | COLO-824 (Breast Carcinoma) | Bliss excess | -0.0049 |
| NC1(C(=O)N[C@@H](CCO)c2ccc(Cl)cc2)CCN(c2ncnc3[nH]ccc23)CC1 [Capivasertib] + CC(C)n1c(=O)n(C)c2cnc3cc(F)c(-c4ccc(OCCCN5CCCCC5)nc4)cc3c21 [AZD1390] (first compound max 10 µM, 7x7, partner max 0.3 µM) | COLO-824 (Breast Carcinoma) | Bliss excess | -0.0137 |
| C[C@@H](c1ccc2nccn2c1)n1nnc2ncc(-c3cnn(C)c3)nc21 [Savolitinib] + CC1(C)CCC(CN2CCN(c3ccc(C(=O)NS(=O)(=O)c4ccc(NCC5CCOCC5)c([N+](=O)[O-])c4)c(Oc4cnc5[nH]ccc5c4)c3)CC2)=C(c2ccc(Cl)cc2)C1 [Venetoclax] (first compound max 1 µM, 7x7, partner max 1 µM) | COLO-824 (Breast Carcinoma) | Bliss excess | -0.0178 |
| CN(CCO)CC[C@H](CSc1ccccc1)Nc1ccc(S(=O)(=O)NC(=O)c2ccc(N3CCC([C@@H](O)c4ccccc4-c4ccc(Cl)cc4)CC3)cc2)cc1S(=O)(=O)C(F)(F)F [AZD4320] + C1CN(CCC1(C(=O)N[C@@H](CCO)C2=CC=C(C=C2)Cl)N)C3=NC=NC4=C3C=CN4 [Capivasertib] (first compound max 1 µM, 7x7, partner max 3 µM) | COLO-824 (Breast Carcinoma) | Bliss excess | -0.0103 |
| C=CCn1c(=O)c2cnc(Nc3ccc(N4CCN(C)CC4)cc3)nc2n1-c1cccc(C(C)(C)O)n1 [AZD1775] + C1CN(CCC1(C(=O)N[C@@H](CCO)C2=CC=C(C=C2)Cl)N)C3=NC=NC4=C3C=CN4 [Capivasertib] (first compound max 3 µM, partner max 3 µM) | COLO-824 (Breast Carcinoma) | Bliss excess | -0.0289 |

Value lookup for Bliss excess; key = COc1nnc2ccc(N3CCC(c4ccc(OCCN5CCN(C)C(=O)[C@H]5C)cc4)CC3)nn12 [AZD5153] + CC1(C)CCC(CN2CCN(c3ccc(C(=O)NS(=O)(=O)c4ccc(NCC5CCOCC5)c([N+](=O)[O-])c4)c(Oc4cnc5[nH]ccc5c4)c3)CC2)=C(c2ccc(Cl)cc2)C1 [Venetoclax] (first compound max 1 µM, 7x7, partner max 1 µM)
-0.0176
